- target-entity: VEGFR (Homo sapiens)
- Construct: host or cells: VEGFR/NFAT Reporter HEK293 cells
- Sequence (P35968 20-1356): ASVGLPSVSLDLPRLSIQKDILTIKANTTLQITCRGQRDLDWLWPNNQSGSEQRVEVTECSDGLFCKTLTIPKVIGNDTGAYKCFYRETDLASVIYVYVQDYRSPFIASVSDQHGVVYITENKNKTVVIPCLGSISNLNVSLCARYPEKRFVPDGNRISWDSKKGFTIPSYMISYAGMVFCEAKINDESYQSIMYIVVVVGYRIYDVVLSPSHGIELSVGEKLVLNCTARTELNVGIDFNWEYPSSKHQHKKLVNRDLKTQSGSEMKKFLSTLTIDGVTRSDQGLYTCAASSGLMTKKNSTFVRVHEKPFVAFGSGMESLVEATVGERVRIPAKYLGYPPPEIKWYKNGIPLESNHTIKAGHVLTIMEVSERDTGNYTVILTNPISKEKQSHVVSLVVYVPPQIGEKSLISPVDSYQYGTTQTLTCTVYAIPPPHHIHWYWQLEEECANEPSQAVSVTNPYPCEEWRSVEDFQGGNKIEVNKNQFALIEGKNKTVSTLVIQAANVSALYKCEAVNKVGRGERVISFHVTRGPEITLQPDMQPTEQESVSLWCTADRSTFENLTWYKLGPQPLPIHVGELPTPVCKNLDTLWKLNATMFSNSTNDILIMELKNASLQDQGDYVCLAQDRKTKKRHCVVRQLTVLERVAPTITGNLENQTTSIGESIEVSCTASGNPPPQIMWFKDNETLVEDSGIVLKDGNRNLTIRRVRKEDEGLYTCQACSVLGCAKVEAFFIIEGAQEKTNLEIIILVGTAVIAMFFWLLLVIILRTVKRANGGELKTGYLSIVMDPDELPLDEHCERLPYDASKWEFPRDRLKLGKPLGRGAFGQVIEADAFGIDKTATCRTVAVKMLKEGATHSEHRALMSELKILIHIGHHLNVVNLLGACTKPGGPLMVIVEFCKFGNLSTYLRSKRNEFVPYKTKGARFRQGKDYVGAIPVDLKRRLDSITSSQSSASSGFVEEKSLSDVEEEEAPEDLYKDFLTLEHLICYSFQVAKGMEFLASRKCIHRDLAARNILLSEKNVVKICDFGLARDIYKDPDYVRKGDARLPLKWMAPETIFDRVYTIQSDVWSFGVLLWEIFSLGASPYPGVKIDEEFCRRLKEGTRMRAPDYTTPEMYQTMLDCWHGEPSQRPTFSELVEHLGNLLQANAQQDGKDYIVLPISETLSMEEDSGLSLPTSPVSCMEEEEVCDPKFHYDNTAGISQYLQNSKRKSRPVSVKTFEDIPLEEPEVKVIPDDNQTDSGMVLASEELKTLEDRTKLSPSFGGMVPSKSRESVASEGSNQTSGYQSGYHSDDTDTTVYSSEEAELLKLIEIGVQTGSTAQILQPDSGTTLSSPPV
- method-notes: VEGF inhibitory ability, luciferase assay in VEGFR/NFAT Reporter HEK293 cells
- Assay type: cell-based
Positions of bridges follow the written chain, without caps; N, C: chain ends. No end group written: not given here.
experimental-endpoint: IC50 (nM)

{"construct-sequence": "AETAGPTWCEDDWYYCWLFGTAAPAAPAPAAPAAPAPVCWEDSWGGEVCWLFGT (disulfide 9-16, 39-49) [AET-VEGFR_D2-PAS16]", "target-entity": "VEGFR (Homo sapiens)", "reported-result": 0.26}
{"construct-sequence": "AETAGPTWCEDDWYYCWLFGTGGGGSGGGGSGGGGSGVCWEDSWGGEVCWLFGT (disulfide 9-16, 39-49) [AET-VEGFR_D2-GS16]", "target-entity": "VEGFR (Homo sapiens)", "reported-result": 2.93}
{"construct-sequence": "AETAGPTWCEDDWYYCWLFGTAAPAAPAPAAPAAPAPAAPAAPAPAAPAAPAPAAPAAPAPAAPAAPAPAVCWEDSWGGEVCWLFGT (disulfide 9-16, 72-82) [AET-VEGFR_D2-PAS49]", "target-entity": "VEGFR (Homo sapiens)", "reported-result": 1.43}
